Measured GI50 values are reported for all entries that follow.
Tested on: SK-MEL-2
Experiment: NCI tumour cell line growth inhibition, 48 h
Active and inactive are the calls of the source. Rule as the data show it: active = GI50 up to about 1.1 µM and inactive = higher.

{"COMPOUND": "O=C(NNC(=O)c1ccccc1S)c1ccccc1S [BIS(THIOSALICYL)HYDRAZIDE]", "GI50": "43.9 µM (inactive)"}
{"COMPOUND": "COc1ccc2c(c1)C(=O)/C(=C/c1ccccc1)C2", "GI50": "74.1 µM (inactive)"}
{"COMPOUND": "CC(C)Oc1cccc(N2C(Nc3ccccc3)=Nc3ccncc3S2(=O)=O)c1", "GI50": "7.01 µM (inactive)"}
{"COMPOUND": "c1cnc2c(c1)Nc1cnncc1S2", "GI50": "> 100 µM (inactive)"}
{"COMPOUND": "CCCCCCCCCCCCCCCCCCNc1ccn(C2OC(COP(=O)(O)OCC(COP(=O)(O)OCC3OC(n4cc(C)c(=O)[nH]c4=O)CC3N=[N+]=[N-])OCCCCCCCCCCCCCCCCCC)C(O)C2O)c(=O)n1 (stereo not given)", "GI50": "> 100 µM (inactive)"}

----------
Tested on: A498
Test: NCI tumour cell line growth inhibition, 48 h
Activity calls are given as the source filed them. No stated cut-off is given here; in the data, active = GI50 up to about 1.1 µM and inactive = higher.
Possible outcomes: active, inactive

{"COMPOUND": "CC1c2ccccc2Cn2cc3c(c21)C(=O)c1cccc(OP(=O)(O)OCc2ccccc2)c1C3=O (centres undefined)", "CLASS ASSIGNMENT": "inactive"}
{"COMPOUND": "CC1=CC(=O)[C@@H](O)[C@]2(C)[C@H]3[C@@]4(O)OC[C@]35[C@H]([C@@H](C)[C@H]4O)[C@@H](O)C(=O)O[C@@H]5C[C@@H]12", "CLASS ASSIGNMENT": "active"}
{"COMPOUND": "Cc1cn2cc(-c3ccncc3)nc2s1", "CLASS ASSIGNMENT": "inactive"}
{"COMPOUND": "CCN(CC)CCNc1ccc(CO)c2sc3ccccc3c(=O)c12 [HYCANTHONE]", "CLASS ASSIGNMENT": "inactive"}

----------
Tested on: XF498
Assay: NCI tumour cell line growth inhibition, 48 h
The source made the active and inactive calls. Rule as the data show it: active = GI50 up to about 1.1 µM and inactive = higher.
Possible outcomes: active, inactive

{"MOLECULE": "N=C(NNS(=O)(=O)c1ccccc1)Oc1ccc(Br)cc1Br", "CLASS ASSIGNMENT": "inactive"}
{"MOLECULE": "CC[C@@]1(OC(=O)CCC(=O)O)C(=O)OCc2c1cc1n(c2=O)Cc2cc3ccccc3nc2-1", "CLASS ASSIGNMENT": "active"}
{"MOLECULE": "COc1ccc2nc3cc(Cl)ccc3c(Nc3ccccc3-c3ccccc3Nc3c4ccc(Cl)cc4nc4ccc(OC)cc34)c2c1", "CLASS ASSIGNMENT": "inactive"}
{"MOLECULE": "CC1=NN(C(=O)c2ccncc2)C(=O)C1/N=N/c1ccc(F)cc1 (centres undefined)", "CLASS ASSIGNMENT": "inactive"}
{"MOLECULE": "Cc1cc(Cl)ccc1NC(=O)CC1SC(NC(=O)c2ccccc2Cl)=NC1=O (centres undefined)", "CLASS ASSIGNMENT": "inactive"}
{"MOLECULE": "CNC(=O)NCCCCC(NC(=O)OCc1ccccc1)C(=O)OCc1ccccc1 (centres undefined)", "CLASS ASSIGNMENT": "inactive"}
{"MOLECULE": "Oc1ccc(C2Oc3cc(O)cc4c3C2c2cc(O)cc3c2C(c2cc(O)cc5c2C4C(c2ccc(O)cc2)O5)C(c2ccc(O)cc2)O3)cc1 (centres undefined)", "CLASS ASSIGNMENT": "inactive"}
{"MOLECULE": "Cc1nc2nnc(C)n2c2c1C(=O)Nc1ccccc1N2", "CLASS ASSIGNMENT": "inactive"}
{"MOLECULE": "O=C1C(Cl)C(c2ccc(Cl)cc2)N1n1cnc2ccccc2c1=O (centres undefined)", "CLASS ASSIGNMENT": "inactive"}
{"MOLECULE": "CN(C)c1ccc(/C=C(\\NC(=O)c2ccccc2)c2nc3cncnc3[nH]2)cc1", "CLASS ASSIGNMENT": "inactive"}
{"MOLECULE": "C=C(C)C(=O)OC1CCC2(C)C(CCC3C2CCC2(C)C(c4ccc(=O)oc4)CC4OC432)C1 (centres undefined)", "CLASS ASSIGNMENT": "inactive"}
{"MOLECULE": "CCOCN/C(N)=N\\C#N", "CLASS ASSIGNMENT": "inactive"}
{"MOLECULE": "CSc1nc(-c2ccc(Cl)cc2)c(C#N)c(=O)n1C1OC(COC(C)=O)C(OC(C)=O)C(OC(C)=O)C1OC(C)=O (centres undefined)", "CLASS ASSIGNMENT": "inactive"}
{"MOLECULE": "Nc1nc[n+](Cc2ccccc2CCO)c2[nH]cnc12", "CLASS ASSIGNMENT": "inactive"}
{"MOLECULE": "O=C1c2cc(CCl)sc2C(=O)c2ccsc21", "CLASS ASSIGNMENT": "inactive"}
{"MOLECULE": "COc1cc2c(cc1OC)C(Cc1ccc(Oc3cc(CC4c5cc(OC)c(OC)cc5CCN4C)ccc3O)cc1)N(C)CC2 (centres undefined)", "CLASS ASSIGNMENT": "inactive"}
{"MOLECULE": "CCOC(=O)NC(=O)c1cn(CCCOC(=O)CCCCCCCCC(=O)OCCCn2cc(C(=O)NC(=O)OCC)c(=O)n(C)c2=O)c(=O)n(C)c1=O", "CLASS ASSIGNMENT": "inactive"}
{"MOLECULE": "N#CC1=C(N)Oc2c(ccc3cccnc23)C1c1ccccc1 (centres undefined)", "CLASS ASSIGNMENT": "inactive"}
{"MOLECULE": "CCc1ccccc1NC(=O)C(=O)C(C#N)c1ccccc1Cl (centres undefined)", "CLASS ASSIGNMENT": "inactive"}

----------
Tested on: HCC 2998
Experiment: NCI tumour cell line growth inhibition, 48 h
Activity calls are given as the source filed them. Cut-off read from the data, not from the text of the source: active = GI50 up to about 1.1 µM and inactive = higher. Starred links: 1 amine or outer side, 2 acyl side, 3 side chain; linkers in the order of their positions; H or OH if unused. Residues, ends and D or L forms follow the SMILES beside them. *: point of attachment. γGlu = O=C(O)[CH](CCC(=O)[*:2])N[*:1]; NHOH = ON*
Possible outcomes: TRUE (active), FALSE (inactive)

{"COMPOUND": "COc1cc([C@@H]2c3cc(O)c(OC)cc3C=C(C(N)=O)[C@H]2C(N)=O)ccc1O", "CLASS ASSIGNMENT": "FALSE"}
{"COMPOUND": "O=C1c2c(Br)sc(Br)c2C(=O)C1(O)O", "CLASS ASSIGNMENT": "FALSE"}
{"COMPOUND": "CCOC(=O)C1=c2[nH]c3cccc4cccc(c43)n2C(=O)CC1", "CLASS ASSIGNMENT": "FALSE"}
{"COMPOUND": "COC(=O)C1(Cc2ccccc2)Cc2c(C)ccc(C)c2C1=O (stereo unspecified)", "CLASS ASSIGNMENT": "FALSE"}
{"COMPOUND": "CC(C)C1CC(CO)(CNc2cc(Cl)nc(N)n2)C1 (stereo unspecified)", "CLASS ASSIGNMENT": "FALSE"}
{"COMPOUND": "CN(C)c1n2c3cc([N+](=O)[O-])ccc3[n+]3c(N(C)C)n4ccccc4c3c2c2cccc[n+]12.[O-][Cl+3]([O-])([O-])[O-].[O-][Cl+3]([O-])([O-])[O-]", "CLASS ASSIGNMENT": "FALSE"}
{"COMPOUND": "COC(=O)C(Cc1cc(OC)c(OC)c(OC)c1)C(=O)OC", "CLASS ASSIGNMENT": "FALSE"}
{"COMPOUND": "O=C(N/C(=C\\c1cc(Cl)ccc1Cl)c1nc2c(O)nc(S)nc2[nH]1)c1ccccc1", "CLASS ASSIGNMENT": "FALSE"}
{"COMPOUND": "COC1C(O)CC(OC2CC(OC3CC(O[C@@H]4C(=O)c5c(cc6cc(OC7CC(OC8CC(O)C(O)C(C)O8)C(O)C(C)O7)c(C)c(O)c6c5O)C[C@H]4[C@H](OC)C(=O)[C@@H](O)[C@@H](C)O)OC(C)C3O)OC(C)C2O)OC1C (stereo partly specified)", "CLASS ASSIGNMENT": "TRUE"}
{"COMPOUND": "CCOC(=O)CNC(=O)C(CCC(=O)NO)NC(=O)CCC(N)C(=O)O (stereo unspecified) (γGlu-Glu(NHOH)-Gly-OEt; configuration not given here)", "CLASS ASSIGNMENT": "FALSE"}
{"COMPOUND": "CCOC(=O)[C@H]1Nc2ccc(OC)cc2C2c3ccccc3CC21 (stereo partly specified)", "CLASS ASSIGNMENT": "FALSE"}

----------
System: DLD-1
Test: NCI tumour cell line growth inhibition, 48 h
The source made the active and inactive calls. Rule as the data show it: active = GI50 up to about 1.1 µM and inactive = higher.
Possible outcomes: Y (active), N (inactive)

{"COMPOUND": "N=C(NNS(=O)(=O)c1ccccc1)Oc1ccc(Br)cc1Br", "CLASS ASSIGNMENT": "N"}
{"COMPOUND": "O=C(/C=C/c1ccc(O)cc1)c1cc(Cl)ccc1O", "CLASS ASSIGNMENT": "N"}
{"COMPOUND": "O=S1(=O)OCCOS(=O)(=O)C1(I)I", "CLASS ASSIGNMENT": "N"}
{"COMPOUND": "COC(=O)c1cc(Cl)ccc1NC(=O)c1ccc([N+](=O)[O-])cc1", "CLASS ASSIGNMENT": "N"}
{"COMPOUND": "COC(=O)c1ccc(C(=O)OC)c2nc3cc(Cl)ccc3nc12", "CLASS ASSIGNMENT": "N"}
{"COMPOUND": "CCc1ccccc1NC(=O)C(=O)C(C#N)c1ccccc1Cl (configuration not stated)", "CLASS ASSIGNMENT": "N"}
{"COMPOUND": "CNC(=O)NCCCCC(NC(=O)OCc1ccccc1)C(=O)OCc1ccccc1 (configuration not stated)", "CLASS ASSIGNMENT": "N"}
{"COMPOUND": "COC(=O)C1C(O)C(C)C(O)C(C)/C=C\\C=C(C)C(=O)Nc2c(C)c(OC(C)=O)c3c(c2O)C(=O)C(C)=C2OCOC(=C23)C(C)=CC(C)(O)C(O)C(C)C1O (configuration not stated)", "CLASS ASSIGNMENT": "N"}
{"COMPOUND": "CNS(=O)(=O)NNS(=O)(=O)c1cccc([N+](=O)[O-])c1", "CLASS ASSIGNMENT": "N"}
{"COMPOUND": "[N-]=[N+]=NC12CC3C4CC5CC3C(C1)C(C5)C4C2", "CLASS ASSIGNMENT": "N"}
{"COMPOUND": "CCN(CCCl)CCCCCNc1c2ccccc2nc2ccc(OC)cc12", "CLASS ASSIGNMENT": "Y"}
{"COMPOUND": "COc1ccc(/C(C#N)=C2/O/C(=N/N)C(c3ccc(OC)c(OC)c3)C2=O)cc1OC (configuration not stated)", "CLASS ASSIGNMENT": "N"}
{"COMPOUND": "CN1N=CSC12C(=O)N(c1ccc(Cl)cc1)C(=O)N2c1ccc(Cl)cc1 (configuration not stated)", "CLASS ASSIGNMENT": "N"}
{"COMPOUND": "Cc1cc(N(CCC#N)CCC#N)ccc1/C=C1N=C(/C=C\\c2ccccc2)OC\\1=O", "CLASS ASSIGNMENT": "N"}
{"COMPOUND": "O=C(Cc1nc2ccc([N+](=O)[O-])cc2nc1O)C(=O)Nc1ccccc1[N+](=O)[O-]", "CLASS ASSIGNMENT": "N"}
{"COMPOUND": "Cc1cn2cc(-c3ccncc3)nc2s1", "CLASS ASSIGNMENT": "N"}
{"COMPOUND": "O=C(CCc1nnc2s/c(=C\\c3ccc4c(c3)OCO4)c(=O)n12)Nc1cc(Cl)ccc1Cl", "CLASS ASSIGNMENT": "N"}
{"COMPOUND": "CCOC(=O)[C@H]1Nc2ccc(OC)cc2C2c3ccccc3CC21 (some centres not stated)", "CLASS ASSIGNMENT": "N"}
{"COMPOUND": "Cc1ccc(/C=C/C(=O)c2sc(-c3cccnc3)nc2C)cc1", "CLASS ASSIGNMENT": "N"}
{"COMPOUND": "CCC1(N=[N+]=[N-])C(=O)Nc2cc(C)ccc2C1=O (configuration not stated)", "CLASS ASSIGNMENT": "N"}
{"COMPOUND": "COc1cccc2c1[C@]1(O)C(O)CCCC21 (some centres not stated)", "CLASS ASSIGNMENT": "N"}
{"COMPOUND": "N#CC1=C(N)Oc2c(ccc3cccnc23)C1c1ccccc1 (configuration not stated)", "CLASS ASSIGNMENT": "N"}
